Method description: Elimination half life in BALB/c mouse infected with Influenza A A/WSN/33 (H1N1) virus at 50 mg/kg, po measured after 24 hrs by LC-MS analysis
Type: ADME, organism-based
Test parameters: in vivo, read-out: LambdaZ (converted)
Measure: half-life (h)
Kindly provide the numeric value in h only, without the unit symbol.

Task: Give its half-life value. Item: "Cc1ncsc1-c1ccc(CNC(=O)[C@@H]2CCCN2C(=O)[C@@H](NC(=O)CCOCCOCCOCCNC(=O)[C@]23CCC(C)(C)C[C@H]2C2=CC[C@@H]4[C@@]5(C)CC[C@H](O)C(C)(C)[C@@H]5CC[C@@]4(C)[C@]2(C)CC3)C(C)(C)C)cc1"
Result: 2.63

* * *

Test system: Influenza A virus
Method description: Antiviral activity against Influenza A A/WSN/33 (H1N1) infected in dog MDCK cells assessed as inhibition of viral induced cytopathic effect incubated for 40 hrs by CellTiter-Glo assay
Format: functional, organism-based
Measure: IC50

Task: Give its IC50 value. Item: CC1(C)CC[C@]2(C(=O)O)CC[C@]3(C)C(=CC[C@@H]4[C@@]5(C)CC[C@H](O)C(C)(C)[C@@H]5CC[C@]43C)[C@@H]2C1 [OLEANOLIC_ACID]
Result: > 200 µM
